- ASSAY_TARGET: human prostanoid DP1 receptor (Homo sapiens, UniProt Q13258)
- Construct: expressed in transfected cells
- Sequence (Q13258 whole entry): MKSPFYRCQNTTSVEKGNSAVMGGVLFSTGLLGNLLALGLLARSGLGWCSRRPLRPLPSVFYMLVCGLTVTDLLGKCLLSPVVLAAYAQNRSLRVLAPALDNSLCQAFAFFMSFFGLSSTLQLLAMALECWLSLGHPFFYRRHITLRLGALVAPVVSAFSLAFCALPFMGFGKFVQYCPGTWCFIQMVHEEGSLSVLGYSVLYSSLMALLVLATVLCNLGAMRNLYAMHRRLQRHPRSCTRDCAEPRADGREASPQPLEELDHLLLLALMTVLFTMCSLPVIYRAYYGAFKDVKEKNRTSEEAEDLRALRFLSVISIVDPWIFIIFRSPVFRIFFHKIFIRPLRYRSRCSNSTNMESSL
- TEST_DETAILS: FLIPR Ca2+ signaling antagonist assay, DP1 receptor stable cell line
- Type: cell-based
- CONDITION_CONTEXT: HEK-293 EBNA stable cell line; standard agonist BW 245C; NA = inactive (no antagonism or Kb 10,000 nM); PAg, Ag not defined
VALUE_TYPE: Kb (µM)
# value in µM; strip the unit string

Here are 8 compounds together with their reported answers.
Memo: CCC(CC)COc1ccc(F)cc1Cn1nc(CCC(=O)O)cc1C , reported Kb: 0.24

Kb reported for this compound COc1ccc(COc2ccc(Cl)cc2Cn2nc(CCC(=O)O)cc2C)cc1 : 0.3

Kindly note the recorded Kb for Cc1cc(CCC(=O)O)nn1Cc1cc(Cl)ccc1OCC1(C(F)(F)F)CCCC1 , which is 0.4

// sample CCC(CC)COc1ccc(Br)cc1Cn1nc(CCC(=O)O)cc1C(F)(F)F , its Kb was 0.06

The recorded Kb for entry Cc1cc(CCC(=O)O)nn1Cc1cc(Cl)ccc1OCC(C)C equals 0.26

The recorded Kb for CCC(CC)COc1ccc(C)cc1Cn1nc(CCC(=O)O)cc1C is 0.55

compound COc1ccc(OCC2CCCC2)c(Cn2nc(CCC(=O)O)cc2C)c1 , Kb observed: 1.5

Notebook: Cc1cc(CCC(=O)O)nn1Cc1cc(C(F)(F)F)ccc1OCc1ccc(Cl)cc1 , Kb read as 0.1

More entries:
Value of Kb reported for the compound CCC(CC)COc1ccc(Br)cc1Cn1nc(CCC(=O)O)cc1C(C)C is 0.54

* * *

- ASSAY_TARGET: human prostanoid EP4 receptor (Homo sapiens, UniProt P35408)
- Construct: expressed in transfected cells
- Sequence (P35408 whole entry): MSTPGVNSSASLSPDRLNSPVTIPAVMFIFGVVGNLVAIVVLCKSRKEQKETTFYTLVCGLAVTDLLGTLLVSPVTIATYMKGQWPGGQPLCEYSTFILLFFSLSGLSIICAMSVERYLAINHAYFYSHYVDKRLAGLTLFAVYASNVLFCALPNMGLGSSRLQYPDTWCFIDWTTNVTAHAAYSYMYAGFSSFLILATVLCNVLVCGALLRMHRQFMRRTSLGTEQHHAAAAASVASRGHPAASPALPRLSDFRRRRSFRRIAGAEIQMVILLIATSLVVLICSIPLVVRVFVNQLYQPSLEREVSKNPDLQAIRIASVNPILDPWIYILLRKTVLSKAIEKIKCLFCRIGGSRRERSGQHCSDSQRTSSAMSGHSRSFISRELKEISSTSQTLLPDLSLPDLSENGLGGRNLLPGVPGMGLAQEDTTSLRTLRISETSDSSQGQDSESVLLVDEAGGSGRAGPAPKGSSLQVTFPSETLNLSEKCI
- TEST_DETAILS: FLIPR Ca2+ signaling antagonist assay, EP4 receptor stable cell line
- Format: cell-based
- CONDITION_CONTEXT: HEK-293 EBNA stable cell line; standard agonist PGE2; NA = inactive (no antagonism or Kb 10,000 nM); PAg, Ag not defined
VALUE_TYPE: EP4 (FLIPR) Kb

Solved entries (count: 4):
For Cc1cc(CCC(=O)O)nn1Cc1cc(Cl)ccc1OCCC1CCCC1 the compound record lists EP4 (FLIPR) Kb as PAg

response.value for Cc1cc(CCC(=O)NS(=O)(=O)CC(F)(F)F)nn1Cc1cc(Cl)ccc1OCc1ccc(Cl)cc1 (field: EP4 (FLIPR) Kb) = Ag

get_value(item= CCC(CC)COc1ccc(Br)cc1Cn1nc(CCC(=O)O)cc1C(F)(F)F , readout=EP4 (FLIPR) Kb) returns PAg

Field EP4 (FLIPR) Kb (entry Cc1cc(CCC(=O)O)nn1Cc1cc(Cl)ccc1OCCCCC(C)C ) reads Ag

Pending compound:
Kindly note the recorded EP4 (FLIPR) Kb for Cc1cc(CCC(=O)O)nn1Cc1cc(Cl)ccc1OC(CC(C)C)CC(C)C , which is Ag

* * *

- ASSAY_TARGET: human prostanoid EP2 receptor (Homo sapiens)
- Construct: expressed in transfected cells
- Sequence (P43116 whole entry): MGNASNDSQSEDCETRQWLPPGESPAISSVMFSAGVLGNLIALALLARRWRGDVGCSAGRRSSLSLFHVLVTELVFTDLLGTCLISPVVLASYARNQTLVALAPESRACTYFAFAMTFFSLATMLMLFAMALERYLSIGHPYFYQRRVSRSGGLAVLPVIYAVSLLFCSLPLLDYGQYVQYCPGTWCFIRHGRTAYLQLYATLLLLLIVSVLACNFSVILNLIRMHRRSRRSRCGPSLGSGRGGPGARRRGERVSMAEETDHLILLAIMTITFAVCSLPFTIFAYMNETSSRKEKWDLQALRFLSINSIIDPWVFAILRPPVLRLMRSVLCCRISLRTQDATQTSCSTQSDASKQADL
- TEST_DETAILS: FLIPR Ca2+ signaling antagonist assay, EP2 receptor stable cell line
- Assay type: cell-based
- CONDITION_CONTEXT: HEK-293 EBNA stable cell line; standard agonist PGE2; NA = inactive (no antagonism or Kb 10,000 nM); PAg, Ag not defined
# class assignment by measured Kb: low (below 2000 nM), intermediate (2000 nM to below 4000 nM), high (4000 nM or more)

Look over these answered cases.
Challenge: Which bin, given its Kb, does Cc1cc(CCC(=O)O)nn1Cc1cc(Br)ccc1OCC(C)C occupy?
Response given: intermediate

Challenge: Class label required: Cc1cc(CCC(=O)NS(=O)(=O)c2ccccc2)nn1Cc1cc(Cl)ccc1OCc1ccc(Cl)cc1
Response given: high

Challenge: Place this compound in its band: Cc1cc(CCC(=O)O)nn1Cc1cc(Br)ccc1OCC1CCC1
Response given: low

Challenge: Band assignment needed for Cc1cc(CCC(=O)O)nn1Cc1cc(Cl)ccc1OCC(C)(C)C please.
Response given: intermediate

Challenge: For Cc1cc(CCC(=O)O)nn1Cc1cc(Cl)ccc1OCC(C)C , which Kb bin applies?
Response given: intermediate

Others:
Challenge: Pick a category. Item: Cc1cc(CCC(=O)O)nn1Cc1cc(OC(F)(F)F)ccc1OCc1ccc(Cl)cc1
Response given: low

* * *

Measured Kb values are reported for all entries that follow.
- ASSAY_TARGET: human prostanoid FP receptor (Homo sapiens)
- Construct: expressed in transfected cells
- Sequence (P43088 whole entry): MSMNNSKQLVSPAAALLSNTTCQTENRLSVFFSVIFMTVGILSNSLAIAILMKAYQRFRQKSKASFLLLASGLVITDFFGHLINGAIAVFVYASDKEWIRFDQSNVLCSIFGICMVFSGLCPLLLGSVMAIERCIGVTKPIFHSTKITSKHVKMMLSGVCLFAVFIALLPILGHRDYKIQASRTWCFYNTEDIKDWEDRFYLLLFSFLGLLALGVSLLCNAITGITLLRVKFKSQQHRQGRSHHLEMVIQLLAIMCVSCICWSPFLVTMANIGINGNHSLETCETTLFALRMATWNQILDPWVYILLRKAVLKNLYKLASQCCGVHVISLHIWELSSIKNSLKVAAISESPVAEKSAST
- TEST_DETAILS: FLIPR Ca2+ signaling antagonist assay, FP receptor stable cell line
- Format: cell-based
- CONDITION_CONTEXT: HEK-293 EBNA stable cell line; standard agonist 17-phenyl-PGF2α; NA = inactive (no antagonism or Kb 10,000 nM); PAg, Ag not defined
Dear colleague, please return just the value in nM, with no unit written.

Some compounds with known Kb results, for comparison:
Kb recorded for this compound, Cc1cc(CCC(=O)O)nn1Cc1cc(OC(F)(F)F)ccc1OCC1CCCC1 , is 90

Data point: CCC(C)CCOc1ccc(Br)cc1Cn1nc(CCC(=O)O)cc1C (stereo not drawn) ; Kb = 90

Moving on to the next compound.
Kb recorded for this compound, CCCC(C)COc1ccc(Br)cc1Cn1nc(CCC(=O)O)cc1C (stereo not drawn) , is 90

* * *

- ASSAY_TARGET: human prostanoid IP receptor (Homo sapiens, UniProt P43119)
- Construct: expressed in transfected cells
- Sequence (P43119 whole entry): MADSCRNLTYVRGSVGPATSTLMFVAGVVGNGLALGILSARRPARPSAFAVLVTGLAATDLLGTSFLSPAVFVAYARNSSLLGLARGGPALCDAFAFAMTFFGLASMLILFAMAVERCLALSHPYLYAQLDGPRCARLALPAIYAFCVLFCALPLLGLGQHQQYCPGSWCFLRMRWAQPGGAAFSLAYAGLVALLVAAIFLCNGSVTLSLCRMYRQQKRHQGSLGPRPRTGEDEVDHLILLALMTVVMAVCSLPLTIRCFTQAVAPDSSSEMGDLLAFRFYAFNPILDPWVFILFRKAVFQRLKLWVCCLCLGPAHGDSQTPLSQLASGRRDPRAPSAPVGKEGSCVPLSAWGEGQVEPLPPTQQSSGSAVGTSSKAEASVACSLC
- TEST_DETAILS: FLIPR Ca2+ signaling antagonist assay, IP receptor stable cell line
- Assay type: cell-based
- CONDITION_CONTEXT: HEK-293 EBNA stable cell line; standard agonist Cicaprost; NA = inactive (no antagonism or Kb 10,000 nM); PAg, Ag not defined
VALUE_TYPE: Kb (nM)
Lab book: enter the figure in nM, no units written.

Completed entries (count: 5):
The compound Cc1cc(CCC(=O)O)nn1Cc1cc(Br)ccc1OCC1CCC1 on human prostanoid IP receptor (Homo sapiens, UniProt P43119): Kb was 3600

Kindly note: human prostanoid IP receptor (Homo sapiens, UniProt P43119), CCc1ccc(OCC(CC)CC)c(Cn2nc(CCC(=O)O)cc2C)c1 , Kb value reported: 1500

Kb on human prostanoid IP receptor (Homo sapiens, UniProt P43119) for Cc1cc(CC(C)(C)C(=O)O)nn1Cc1cc(Cl)ccc1OCC1CCCC1 is 1700

Reported human prostanoid IP receptor (Homo sapiens, UniProt P43119) Kb for item CCC(CC)COc1ccc(Br)cc1Cn1nc(CCC(=O)NS(=O)(=O)C(F)(F)F)cc1C was 2700

The recorded Kb with human prostanoid IP receptor (Homo sapiens, UniProt P43119) for Cc1cc(CCC(=O)O)nn1Cc1cc(Cl)ccc1OCCC(C)C was 5530

Others:
Measured Kb for this entry CCC(CC)Oc1ccc(Cl)cc1Cn1nc(CCC(=O)O)cc1C on human prostanoid IP receptor (Homo sapiens, UniProt P43119): 6100

human prostanoid IP receptor (Homo sapiens, UniProt P43119) Kb of Cc1cc(CCC(=O)O)nn1Cc1cc(Cl)ccc1C#CC1CCCC1 is 1600

Noted Kb for CCC(CC)COc1ccc(Br)cc1Cn1nc(CCC(=O)O)cc1C(C)C , tested on human prostanoid IP receptor (Homo sapiens, UniProt P43119): 1100

Value sought: Kb, system human prostanoid IP receptor (Homo sapiens, UniProt P43119), item Cc1cc(CCC(=O)NS(=O)(=O)C(F)(F)F)nn1Cc1cc(Cl)ccc1OCC1CCCC1 . Result: 800

Summary: COc1ccc(COc2ccc(Cl)cc2Cn2nc(CCC(=O)O)cc2C)cc1 , human prostanoid IP receptor (Homo sapiens, UniProt P43119), Kb = 1200

* * *

- ASSAY_TARGET: human prostanoid EP1 receptor (Homo sapiens)
- Construct: expressed in transfected cells
- Sequence (P34995 whole entry): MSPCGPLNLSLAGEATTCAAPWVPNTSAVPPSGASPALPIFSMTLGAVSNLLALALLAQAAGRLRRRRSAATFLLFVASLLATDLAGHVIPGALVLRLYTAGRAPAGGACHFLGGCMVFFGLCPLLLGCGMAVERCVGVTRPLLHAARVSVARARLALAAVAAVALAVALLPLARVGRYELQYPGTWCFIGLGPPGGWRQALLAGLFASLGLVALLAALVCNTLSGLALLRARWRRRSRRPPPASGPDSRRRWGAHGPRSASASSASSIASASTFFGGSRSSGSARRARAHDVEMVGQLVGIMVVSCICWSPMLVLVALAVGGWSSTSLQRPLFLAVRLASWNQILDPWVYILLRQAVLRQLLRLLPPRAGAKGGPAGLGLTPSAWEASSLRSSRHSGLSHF
- TEST_DETAILS: FLIPR Ca2+ signaling antagonist assay, EP1 receptor stable cell line
- Format: cell-based
- CONDITION_CONTEXT: HEK-293 EBNA stable cell line; standard agonist PGE2; NA = inactive (no antagonism or Kb 10,000 nM); PAg, Ag not defined
Returns class 1 if the recorded Kb is greater than or equal to 0.3 µM, and class 0 otherwise.

Challenge: In plain terms: is recorded Kb at least 0.3 µM for Cc1cc(CCCCC(=O)O)nn1Cc1cc(Cl)ccc1OCC1CCCC1 ?
Response given: class 1

Challenge: Reported Kb reaches at least 0.3 µM for CCC(CC)COc1ccc(Br)cc1Cn1nc(CC(C)C(=O)O)cc1C (stereo not shown) ?
Response given: class 0

Challenge: Does the reported Kb for Cc1cc(CCC(=O)O)nn1Cc1cc(Cl)ccc1OCC1CCCO1 (stereo not shown) fall at or above the 0.3 µM mark?
Response given: class 1

Challenge: Has CCC(CC)COc1ccc(OC(F)(F)F)cc1Cn1nc(CCC(=O)O)cc1C a recorded Kb greater than or equal to 0.3 µM?
Response given: class 0

Challenge: Reported Kb at or above 0.3 µM? C#Cc1ccc(OCC(CC)CC)c(Cn2nc(CCC(=O)O)cc2C)c1
Response given: class 0

Challenge: Test whether the compound CCCCC(CC)COc1ccc(Br)cc1Cn1nc(CCC(=O)O)cc1C (stereo not shown) records Kb of 0.3 µM or higher.
Response given: class 1

Others:
Challenge: Could you verify whether the entry CCC(C)(CC)COc1ccc(Br)cc1Cn1nc(CCC(=O)O)cc1C shows Kb of no less than 0.3 µM?
Response given: class 0
